The substances listed here are annotated with their log10 of EC50.
Molecular target: human GcgR (Homo sapiens, UniProt P47871)
Sequence (P47871 26-477): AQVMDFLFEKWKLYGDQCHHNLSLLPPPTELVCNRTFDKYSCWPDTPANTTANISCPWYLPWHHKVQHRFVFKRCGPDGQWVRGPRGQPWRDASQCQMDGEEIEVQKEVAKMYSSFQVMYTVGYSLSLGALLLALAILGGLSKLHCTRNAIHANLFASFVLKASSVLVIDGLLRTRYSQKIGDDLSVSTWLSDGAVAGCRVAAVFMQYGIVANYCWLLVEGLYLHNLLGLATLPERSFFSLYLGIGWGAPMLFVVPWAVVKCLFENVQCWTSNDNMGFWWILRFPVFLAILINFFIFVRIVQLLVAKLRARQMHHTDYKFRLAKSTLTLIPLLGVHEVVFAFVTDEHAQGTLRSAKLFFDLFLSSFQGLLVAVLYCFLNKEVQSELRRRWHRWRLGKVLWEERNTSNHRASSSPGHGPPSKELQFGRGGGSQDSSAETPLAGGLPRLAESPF
Test: Functional cAMP activity in the presence of 1% HSA
Format: cell-based
Conditions: read-out: cAMP Rel EC50, hGcgR
Starred links: 1 amine or outer side, 2 acyl side, 3 side chain; linkers in the order of their positions; H or OH if unused. Non-standard residues stand in square brackets, D forms with d. Groups on a side chain read outwards from the residue. *: point of attachment. C20 diacid = O=C(O)CCCCCCCCCCCCCCCCCCC(=O)*; C18 diacid = O=C(O)CCCCCCCCCCCCCCCCC(=O)*; αMePhe(2-F) = C[C@](N)(Cc1ccccc1F)C(=O)O; γGlu = O=C(O)[C@H](CCC(=O)[*:2])N[*:1]; αMe4Pal = C[C@](N)(Cc1ccncc1)C(=O)O; αMeY = C[C@](N)(Cc1ccc(O)cc1)C(=O)O; αMeF = C[C@](N)(Cc1ccccc1)C(=O)O; 4Pal = N[C@@H](Cc1ccncc1)C(=O)O; αMeL = CC(C)C[C@](C)(N)C(=O)O; αMeS = C[C@](N)(CO)C(=O)O; Orn = NCCC[C@H](N)C(=O)O; AEEA = NCCOCCOCC(=O)O; Aib = CC(C)(N)C(=O)O
On a log10 scale: recorded EC50, unit nM.

Substance	Value
H-Y[Aib]QGT[αMePhe(2-F)]TSD[4Pal][αMeS]I[αMeL]LD[Orn]K([AEEA-γGlu-C18 diacid])AQ[αMe4Pal]EFI[dE][αMeY]LIEGGPSSGAPPPGGE-NH2 [Example 1144]	2.29
H-Y[Aib]QGTFTSDFS[Orn][αMeL]LDKK([γGlu-AEEA-γGlu-C18 diacid])AQ[Aib]AFIEYLLE[Aib]GPSSGAPPPSG[4Pal]-NH2 [Example 277]	3.23
H-Y[Aib]QGT[αMePhe(2-F)]TSD[4Pal]SI[αMeL]LDKK([γGlu-γGlu-C18 diacid])AQ[Aib]AFIEYLEEGGPSSGEPPPSGTGE-NH2 [Example 624]	2.91

Entry H-Y[Aib]QGT[αMePhe(2-F)]TSD[4Pal][αMeS]I[αMeL]LD[Orn]K([γGlu-γGlu-C18 diacid])AQ[Aib][Orn]FI[dE][αMeY]LTEGGPSSGEPPPEGTEEE-NH2 [Example 598] has what log10 of EC50?
2.66

Now this one: H-Y[Aib]QGTFTSDYSI[αMeL]LDKQAAK([AEEA-AEEA-γGlu-C20 diacid])QFVEWLIA[Aib]GPSSGEPPPGSG-NH2 [Example 335]
3.15

Now this one: H-Y[Aib]QGT[αMePhe(2-F)]TSD[4Pal][αMeS]I[αMeL]LD[Orn]K([γGlu-γGlu-C18 diacid])AQ[αMe4Pal]EFI[dE][αMeY]LIEGGPSSGAPPPEGGGEE-NH2 [Example 1220]
2.23

Now this one: H-Y[Aib]QGTFTSD[4Pal]S[Orn][αMeL]LDKK([γGlu-γGlu-C18 diacid])AQ[αMe4Pal]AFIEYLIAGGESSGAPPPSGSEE-NH2 [Example 964]
2.51

Now this one: H-Y[Aib]QGTFTSDFS[Orn][αMeL]LDKK([AEEA-γGlu-C18 diacid])AQ[Aib]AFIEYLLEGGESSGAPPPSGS-NH2 [Example 145]
2.84

Now this one: H-Y[Aib]QGT[αMePhe(2-F)]TSD[4Pal][αMeS]I[αMeL]LD[Orn]K([γGlu-γGlu-C18 diacid])AQ[Aib][Orn]FI[dE][αMeY]LAEGGPSSGEPPPSGTE-NH2 [Example 544]
2.23

Now this one: H-Y[Aib]QGT[αMeF]TSDYSILLDKIAAK([AEEA-AEEA-γGlu-C18 diacid])NFIEYLVEGGPSSGEPPPSEG-NH2 [Example 307]
3.27

Now this one: H-Y[Aib]QGT[αMePhe(2-F)]TSD[4Pal][αMeS]I[αMeL]LD[Orn]K([AEEA-γGlu-C18 diacid])AQ[Aib][Orn]FI[dE]YLIEGGPSSGEPPPSGTE-NH2 [Example 501]
2.66
